- Tested on: RARa homodimer (NR concentration 270 nM)
- PROTOCOL_DESCRIPTION: PBM binding z-score (relative to random genomic background probes); higher = stronger binding; sequences stand for … in GC…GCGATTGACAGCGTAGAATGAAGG
MEASURED_PARAMETER: PBM binding z-score
Lab note: jot down the number only; don't add units.

// recorded PBM binding z-score for CGAACTGGGTCAAGGACAGTGAATCTCCGCACGC : 0.123

// recorded PBM binding z-score for TCTAGTTGGCCACGGAGGTCACACACGACGGGTA : 0.587

// recorded PBM binding z-score for ATATGTAGATTAGCTGGGGTCATTCAGACTAGGC : 1.07

// recorded PBM binding z-score for ACTCGGCGGACAAAGGTCAGAGCTACGCCAGTGA : 0.924

// recorded PBM binding z-score for TAGCCTAGGTCATCCAGGGGCCAGTATAGAAAGC : 0.127

// recorded PBM binding z-score for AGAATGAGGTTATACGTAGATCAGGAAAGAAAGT : 0.559

// recorded PBM binding z-score for ACTTACGGGTCAACGAGGATATAGCACGCGTATA : 1.35

// recorded PBM binding z-score for CATACAGGGTCAGCTAGGCCAGAGTAGGGACGGC : 0.0717

// recorded PBM binding z-score for TTACCAAGGTGAAGGTAGTTGATCCCTCTGTAGA : -0.156

// recorded PBM binding z-score for TTACCAAGATGAAAGGTCGTTGATGCACGCCTTG : 0.444

// recorded PBM binding z-score for TCATATAGGTAAAGGGGAAAGTCGAACGATATGA : 0.996

// recorded PBM binding z-score for CGATCTAGGTCATCCAGGACAGTGAATACATTGA : 0.582
